- Measurement Target: Cannabinoid receptor 2 (Homo sapiens)
- Sequence (P34972 whole entry): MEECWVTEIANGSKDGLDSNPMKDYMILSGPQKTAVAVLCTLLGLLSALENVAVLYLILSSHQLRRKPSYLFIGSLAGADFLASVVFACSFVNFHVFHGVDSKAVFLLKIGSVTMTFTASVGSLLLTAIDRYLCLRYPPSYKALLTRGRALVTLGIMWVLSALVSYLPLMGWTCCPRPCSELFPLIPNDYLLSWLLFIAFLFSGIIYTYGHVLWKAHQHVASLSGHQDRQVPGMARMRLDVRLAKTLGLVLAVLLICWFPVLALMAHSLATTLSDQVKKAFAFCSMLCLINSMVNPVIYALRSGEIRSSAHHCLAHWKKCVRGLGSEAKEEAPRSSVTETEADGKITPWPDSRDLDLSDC
pKi: −log10 of the molar value.
// values below are reported pKi
Property: pKi

>  <Structure Smiles>
COc1ccc(-c2cc(Cc3ccc(F)cc3)c(OC)c(C(=O)NC3CCCCCC3)c2)cc1

>  <Experimental Result>
≤ 5.00

$$$$
>  <Structure Smiles>
C=CCc1cc(NC(=O)CCCCCCCCCCC)c(O)c(-c2ccc(OC)c(CC=C)c2)c1

>  <Experimental Result>
< 5.00

$$$$
>  <Structure Smiles>
C=CCc1cc(NC(=O)CCCCCCCCCCCCCCCCC)c(O)c(-c2ccc(OC)c(CC=C)c2)c1

>  <Experimental Result>
< 5.00

$$$$
>  <Structure Smiles>
C=CCc1cc(NC(C)=O)c(O)c(-c2ccc(OC)c(CC=C)c2)c1

>  <Experimental Result>
< 5.00

$$$$
